System: T-47D breast
Experiment: NCI tumour cell line growth inhibition, 48 h
So I've got a bunch of compounds here, and I need their GI50 values.

Form field: reported GI50 of OCc1cn(Cc2ccc(Cl)cc2)c2ccccc12
38.6 nM

Form field: reported GI50 of Cc1cc2c(cc1C)[n+](=O)c(C(=O)C(C)(C)C)c(C(F)(F)F)n2[O-]
32300 nM

Form field: reported GI50 of Cc1nc2ccc(Nc3nc(Cl)nc(Nc4ccc(F)cc4)n3)cc2n1Cc1ccccc1
1810 nM

Form field: reported GI50 of CCN(CC)CCOc1cccc2nc3c(cc12)Cn1c-3cc2c(c1=O)COC(=O)C2(O)CC (stereo not given)
739 nM

Form field: reported GI50 of O=C(c1ccccc1)c1c(C(F)(F)F)n([O-])c2ccc(F)cc2[n+]1=O
655 nM

====

Tested on: MDA-MB-435
Assay: NCI tumour cell line growth inhibition, 48 h
So I've got a bunch of compounds here, and I need their log10 TGI values.
Scale: decimal log of TGI, TGI in µM.

Form field: reported log10 TGI of COc1ccc(C(=O)/C=C/c2c(OC)cc(OC)cc2OC)c(OC)c1
-0.02

Form field: reported log10 TGI of OC1c2c(ccc3c2CCC3)CC12Cc1ccccc1C2 (stereo not given)
1.47

Form field: reported log10 TGI of COc1ccc(-c2nn(C(=O)NCCN(C)C)cc2-c2ccncc2)cc1Cl
0.64

Form field: reported log10 TGI of CCN(CC)c1ccc(C2=NN(C(C)=O)C(c3cc(OC)c(OC)c(OC)c3)C2)cc1 (stereo not given)
-0.44

Form field: reported log10 TGI of CC(C)(C)OC(=O)NC(Cc1ccc(OCc2ccccc2)cc1)C(=O)NC(COCc1ccccc1)C(=O)Oc1c(Cl)c(Cl)c(Cl)c(Cl)c1Cl (stereo not given)
1.75

====

Tested on: CAKI-1 renal
Assay: NCI tumour cell line growth inhibition, 48 h
So I've got a bunch of compounds here, and I need their TGI values.

Form field: reported TGI of CC(C)Oc1c(N(Cc2ccccc2)c2ccccc2C2SCCCS2)c(=O)c1=O
> 100 µM

Form field: reported TGI of C#CCCCC(=C)C[C@@H]1OC(=O)[C@H](C)[C@@H]1O
> 100 µM

Form field: reported TGI of C[C@H](NC1=CC(=O)C(N[C@@H](C)[C@H](O)c2ccccc2)=CC1=O)[C@H](O)c1ccccc1
> 100 µM

Form field: reported TGI of S=C1C(=Nc2ccccc2)N(C2CCCCC2)C(=NC2CCCCC2)N1c1ccccc1
> 100 µM

Form field: reported TGI of COc1ccc(-c2nn(C(=O)NCCN(C)C)cc2-c2ccncc2)cc1Cl
24.4 µM

====

System: IGROV1 ovarian
Assay: NCI tumour cell line growth inhibition, 48 h
property: TGI

Observed TGI on IGROV1 ovarian for COc1ccc(NC(=O)CC(=O)NN)cc1 , please.
> 100 µM

Observed TGI on IGROV1 ovarian for COC(=O)C1(Cc2ccccc2)Cc2cc3c(cc2C1)CCC3 , please.
> 100 µM

Observed TGI on IGROV1 ovarian for COc1ccc(-c2cc(=O)oc3ccc(Cl)cc23)cc1F , please.
> 100 µM

====

System: HCC-2998 colon
Assay: NCI tumour cell line growth inhibition, 48 h
property: TGI

Form field: reported TGI of O=C(c1ccccc1)c1c(C(F)(F)F)n([O-])c2ccc(F)cc2[n+]1=O
1.9 µM

Form field: reported TGI of Cc1ccc(/C=C2\COc3ccc(O)c(O)c3C2=O)cc1
3.28 µM

Form field: reported TGI of CCOC(NC(=O)CC)(C(F)(F)F)C(F)(F)F
> 100 µM

Form field: reported TGI of CCOC(=O)c1ccc2c(c1)nc(-c1ccc(Cl)cc1)n2-c1cc(C(C)(C)C)[nH]n1
16.2 µM

Form field: reported TGI of COc1ccc(OC)c(C(=O)c2cccc(C(=O)c3cc(OC)ccc3OC)n2)c1
> 100 µM

Form field: reported TGI of Cc1ccc(S(=O)(=O)NNC(=O)Nc2ccc(Cl)cc2)cc1
> 100 µM

Form field: reported TGI of COc1ccc(N[C@H]([C@@H](c2ccccc2)S(=O)c2ccc(C)cc2)C(F)(F)F)cc1 (stereo not given in full)
> 100 µM

Form field: reported TGI of S=c1sc2c(s1)SCc1cccc(n1)CSc1sc(=S)sc1SCc1cccc(n1)CS2
> 100 µM

Form field: reported TGI of O=C(COc1ccc2c(=O)cc(-c3ccc(Cl)cc3)oc2c1)N1CCN(c2ccccc2)CC1
> 100 µM

Form field: reported TGI of COc1ccc2c(c1)OCC1Cc3cc4c(cc3OC21)OCO4 (stereo not given)
> 100 µM

====

Test system: MDA-N
Assay: NCI tumour cell line growth inhibition, 48 h
So I've got a bunch of compounds here, and I need their TGI values.

Form field: reported TGI of CCCCN(CCCC)CC(O)c1cc(-c2ccc(Cl)c(Cl)c2)nc2c(Cl)cc(Cl)cc12 (stereo unspecified)
> 100 µM

Form field: reported TGI of O=C(O)CCc1ccc(-c2ccccc2)[nH]1
> 100 µM

Form field: reported TGI of Cc1csc(-n2nc(C)cc2C)n1
> 100 µM

Form field: reported TGI of S=C(S)N1CCOCC1
> 100 µM

Form field: reported TGI of CN(C)c1ccc(C2SCC(=O)N2c2nc3cc4sc(N5C(=O)CSC5c5ccc(N(C)C)cc5)nc4cc3s2)cc1 (stereo unspecified)
> 100 µM

Form field: reported TGI of C=C(C)c1ccccc1 (tested in a mixture with another compound)
> 100 µM

Form field: reported TGI of C(=Nc1ccccc1C1SCCCS1)c1ccccc1
> 100 µM

Form field: reported TGI of COc1ccc2nc3cc(Cl)ccc3c(Nc3ccc(O)c(CN4CCN(C)CC4)c3)c2c1
3.21 µM

Form field: reported TGI of CCCCCCCC/C=C(\Br)C(O)C(Br)Br (stereo unspecified)
54.1 µM

Form field: reported TGI of CCOC(=O)c1nnsc1NC(=O)NCCCCCCn1c(=O)n(CCCCCCNC(=O)Nc2snnc2C(=O)OCC)c(=O)n(CCCCCCNC(=O)Nc2snnc2C(=O)OCC)c1=O
> 100 µM

Form field: reported TGI of Cc1cccc2c1CC1(Cc3ccccc3C1=O)C2=O (stereo unspecified)
> 100 µM

Form field: reported TGI of Cc1ccc(C2C(C(=O)C(C)(C)C)N2S(=O)(=O)c2ccc(C)cc2)cc1 (stereo unspecified)
34.8 µM

Form field: reported TGI of Cc1[nH]c(-c2ccccc2)c(O)c1C(=O)OC12CC3CC(CC(C3)C1)C2
31.2 µM

Form field: reported TGI of CCOC(=O)c1nnsc1NC(=O)NN
> 100 µM

Form field: reported TGI of CC(C)(C)OC(=O)NC(Cc1ccc(OCc2ccccc2)cc1)C(=O)NC(COCc1ccccc1)C(=O)Oc1c(Cl)c(Cl)c(Cl)c(Cl)c1Cl (stereo unspecified)
80.8 µM

Form field: reported TGI of O=c1[nH]nc(Cc2ccccc2)n1/N=C/c1ccc(/C=N/n2c(Cc3ccccc3)n[nH]c2=O)cc1
> 100 µM

====

So I've got a bunch of molecules here, and I need their TGI values.
Test system: OVCAR-3 ovarian
Experiment: NCI tumour cell line growth inhibition, 48 h

Form field: reported TGI of CCc1ccccc1NC(=O)C1=C(C)NC(C)=C(C(=O)Nc2ccccc2CC)C1c1cccc([N+](=O)[O-])c1
> 100 µM

Form field: reported TGI of C#CCCCC(=C)C[C@@H]1OC(=O)[C@H](C)[C@@H]1O
> 100 µM

Form field: reported TGI of Cc1cc(C(=O)CBr)c(CN2C(=O)c3ccccc3C2=O)c(=O)n1C
40.9 µM

Form field: reported TGI of CCOC(=O)/C(ON)=C(/CC/C(C(=O)OC)=C(\ON)C(=O)OCC)C(=O)OC
> 100 µM

Form field: reported TGI of O=C1N[C@H](Cc2cnc[nH]2)C(=O)N2CCC[C@@H]12
> 100 µM

Form field: reported TGI of CC1(c2ccccc2)N=C(C(N)=O)c2[nH]cnc2N1 (stereo unspecified)
> 100 µM

Form field: reported TGI of COc1ccc(-c2nn(C(=O)NCCN(C)C)cc2-c2ccncc2)cc1Cl
39.1 µM

Form field: reported TGI of CCCCN(CCCC)CC(O)c1cc(-c2ccc(Cl)c(Cl)c2)nc2c(Cl)cc(Cl)cc12 (stereo unspecified)
> 100 µM

Form field: reported TGI of O=C(/C=C/c1ccccc1F)c1ccc([N+](=O)[O-])cc1
77.9 µM

Form field: reported TGI of NC(N)=N/N=C/c1oc(-c2ccc(S(=O)(=O)O)o2)c(-c2ccc(S(=O)(=O)O)o2)c1[N+](=O)[O-]
> 100 µM

Form field: reported TGI of c1ccc(CSCCNCCN(CCNCCSCc2ccccc2)CCNCCSCc2ccccc2)cc1
18.3 µM
